Measured Index, listed per entry for reference.
Assay: Lipophilicity index (substitution method)
Format: physicochemical
Conditions: octanol/water
READOUT_LABEL: Index

| RECORD_SMILES | READOUT_LABEL | NUMERIC_RESULT |
| --- | --- | --- |
| CCCN(CCC)c1ccc(Nc2c3ccccc3nc3ccccc23)cc1 | Index | 2.24 |
| c1ccc(Nc2c3ccccc3nc3ccccc23)cc1 | Index | 0 |
| COc1cc(NS(C)(=O)=O)ccc1Nc1c2ccc(N(C)C)cc2nc2cc(N(C)C)ccc12 | Index | -0.84 |
| CNc1ccc(Nc2c3ccccc3nc3ccccc23)cc1OC | Index | -0.49 |
| CCCCCCNc1ccc(Nc2c3ccc(Cl)cc3nc3ccc(OC)cc23)cc1 | Index | 3.07 |
| CCN(CC)CCCc1ccc(Nc2c3ccccc3nc3ccccc23)cc1 | Index | 4.22 |
| CN(C)Cc1ccc(Nc2c3ccccc3nc3ccccc23)cc1 | Index | -0.15 |
| CCCCN(CCCC)c1ccc(Nc2c3ccccc3nc3ccccc23)cc1 | Index | 3.56 |
| CN(C)c1ccc(Nc2c3ccccc3nc3ccccc23)cc1 | Index | 0.18 |

----------
Assay: Lipophilicity index (substitution method)
Type: physicochemical
Conditions: octanol/water
READOUT_LABEL: Index

| RECORD_SMILES | READOUT_LABEL | RESULT |
| --- | --- | --- |
| c1ccc2c(Nc3ccc(NC4CCCC4)cc3)c3ccccc3nc2c1 | Index | 1.8 |
| CCN(CC)c1ccc(Nc2c3ccccc3nc3ccccc23)cc1 | Index | 1.18 |
| CCCCCCNc1ccc(Nc2c3ccc(N(C)C)cc3nc3cc(N(C)C)ccc23)cc1 | Index | 2.74 |
| CCCCCCN(C)c1ccc(Nc2c3ccccc3nc3ccccc23)cc1 | Index | 3.04 |
| Nc1ccc2c(=Nc3ccc(S(N)(=O)=O)cc3)c3ccc(N)cc3[nH]c2c1 | Index | -4.28 |
| CCCCCCNc1ccc(Nc2c3ccc(Cl)cc3nc3ccc(OC)cc23)cc1OC | Index | 3.71 |
| CCCCCCNc1ccc(Nc2c3ccccc3nc3ccccc23)cc1 | Index | 2.38 |
| CCN(CC)CCNc1ccc(Nc2c3ccccc3nc3ccccc23)cc1OC | Index | 3.27 |
| CCN(CC)CCCNc1ccc(Nc2c3ccccc3nc3ccccc23)cc1 | Index | 3.29 |

Data credit: ChEMBL document CHEMBL1130117
